test_method_notes: protein stability index of a GFP-peptide fusion (GPS, HEK-293T) (PSI 1-6); higher = more stable;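 further: 24-mer peptide tiles fused after GFP, lentivirally expressed, FACS-sorted into six equal bins by GFP/DsRed ratio, decoded by Illumina sequencing, PSI is the read-weighted mean bin number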
experimental_setup: treatment: MLN4924 1 uM, 8 h; c terminus: a fixed tail appended
Would you kindly list protein stability index for each of these sequences?
No unit in the answer, only the number.

Prompt: What does the data say about its protein stability index? Entry: LEAVAGALVVALWGPLQDSLEHTL [TSPAN10]
Response: 3.57

Prompt: Which protein stability index reading was recorded for the sequence WVFHHYVSTFLSGVMLTWPDGLMY [TMEM120A] ?
Response: 3.11

Prompt: Bench note: what protein stability index did SAESQGLDGAGLMGFVPHNGSLYG [ADAMTSL2] show?
Response: 3.47

Prompt: Looking for the measured protein stability index of NFSKKIQQIHVVSQFKILVSLLEN [VPS39] , can you help?
Response: 2.81

Prompt: Please look up its protein stability index: DVSLCRWHPKPYCQALPYGPGYWM [FBXO34]
Response: 2.15

Prompt: Using the record for DRFAQDSEMKKCSDYESIEVPDSY [PPEF2] , report its protein stability index.
Response: 5.15

Prompt: protein stability index lookup needed for AAASPYIRTKLNYNPPKDDGSTYK [GAN] , thanks.
Response: 3.79

Prompt: Which value of protein stability index has been reported for NSNQATDIMETSGWKSMIQSHPHL [SPOPL] in the records?
Response: 3.48

Prompt: So what's the measured protein stability index for this one? GLEGLFEDIDTSMYDNELWAPASE [SERTAD1]
Response: 3.81

Prompt: Item under review: SSFSDPFFVVETLCIIWFSFELLV [KCNA3] . Reported protein stability index?
Response: 3.2
